Target: human RGS12 RGS-box (wild-type) (Homo sapiens)
Construct: human RGS12 RGS-box (aa 695–843 of UniProt O14924); host or cells: E. coli
Assay: Transcreener GDP RGScreen fluorescence polarization assay of RGS12 RGS-box GAP activity on Gαi1(DM)
Format: biochemical
Settings: wild-type RGS12 RGS-box GAP activity, Gαi1(DM), read-out: RGS12 pIC50 (converted)
Source text: We previously described work with BellBrook Labs creating the Transcreener GDP RGScreen fluorescence polarization assay of steady-state GTP hydrolysis, leveraging a double point-mutant in the Gα enzyme to make GTP hydrolysis, rather than GDP (product) release, the rate-limiting step for multiple rounds of GTP conversion ([57], [59]). […]
recorded.endpoint: IC50 (µM)

Here is how some molecules turned out for IC50.
> print(dat)
                                   molecule  assay.result
1  CC(Sc1n[nH]c2nc3ccccc3n12)C(=O)c1c(F)cc(F)cc1F (centres unmarked)          63.1
2  c1ccc2c(c1)OC[C@@H](c1nnc3n1N=C(c1ccc4c(c1)OCCO4)CS3)O2          8.71
3  O=C(O)C[C@@H]1Sc2nnc(COc3ccc(Cl)cc3)n2N=C1c1ccccc1          42.7
4     C1CC[C@H]2Sc3nnc([C@H]4CCCO4)n3N=C2C1          30.2
5  CCCc1ccc(C2=Nn3c(COc4ccccc4F)nnc3SC2)cc1          10.5

(P) O=C(O)C[C@@H]1Sc2nnc(-c3ccco3)n2N=C1c1ccc(F)cc1
(Q) COc1ccc(OCc2nnc3n2N=C(c2ccc(NC(C)=O)cc2)CS3)cc1
-- ask Between P and Q , which one shows the larger IC50 value? Use the label to indicate which entry you chose.
-- reply Q

(1) FC(F)Oc1ccc(C2=Nn3c(COc4ccccc4)nnc3SC2)cc1
(2) COC(=O)C1Sc2nnc(COc3ccc(OC)cc3)n2N=C1c1cccc(N2CCCC2=O)c1 (centres unmarked)
(3) COc1ccc(OCc2nnc3n2N=C(c2cccc(N4CCCC4=O)c2)CS3)cc1
(4) Cc1ccc(C2=Nn3c(COc4ccc(Cl)cc4)nnc3SC2)c(C)c1
-- ask # sort list by recorded IC50, greatest to least Sort the labels as requested; that list is your answer.
-- reply 3, 2, 4, 1

----------
Target: human RGS12 RGS-box (wild-type) (Homo sapiens, UniProt O14924)
Construct: human RGS12 RGS-box (aa 695–843 of UniProt O14924); host or cells: E. coli
Sequence (O14924 695-843): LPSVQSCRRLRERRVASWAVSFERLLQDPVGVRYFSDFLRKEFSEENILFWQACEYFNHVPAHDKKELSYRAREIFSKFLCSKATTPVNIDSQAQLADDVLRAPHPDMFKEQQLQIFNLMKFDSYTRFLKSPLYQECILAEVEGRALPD
Assay: Transcreener GDP RGScreen fluorescence polarization assay of RGS12 RGS-box GAP activity on Gαi1(DM)
Format: biochemical
Details: wild-type RGS12 RGS-box GAP activity, Gαi1(DM), read-out: RGS12 pIC50 (converted)
recorded.endpoint: IC50 (µM)

> print(dat)
                                   compound  assay.result
1  CC(C)(C)c1ccc(C2=Nn3c(nnc3-c3ccco3)SC2)cc1          53.7
2  CCOc1ccccc1-c1nnc2n1N=C(c1ccc(NC(=O)C(C)C)cc1)[C@@H](C)S2          44.7
3  O=C(O)C[C@@H]1Sc2nnc(CCC3CCCCC3)n2N=C1c1ccccc1            24

(A) Cc1ccc(C2=Nn3c(COc4ccccc4)nnc3SC2)c(C)c1
(B) O=C(O)C[C@@H]1Sc2nnc(-c3ccco3)n2N=C1c1ccccc1
-- ask Pick one: A or B . Which one has the lower reported IC50? Please reply using the label of the selected record.
-- reply A
(A: 4.07 µM, B: 83.2 µM)

(1) COc1ccc(Cc2nnc3n2N=C(c2ccc(C)c(C)c2)[C@@H](C)S3)cc1OC
(2) COc1ccc(OCc2nnc3n2N=C(c2ccc(C)cc2)[C@@H](C)S3)cc1
-- ask Larger number for IC50: 1 , or 2 ? When you have decided, please share the label of that item.
-- reply 1

(P) Cc1ccc(C2=Nn3c(nnc3C3CC3)SC2CC(=O)O)cc1 (stereo not drawn)
(Q) CCN(CC)S(=O)(=O)c1cccc(-c2nnc3n2N=C(c2ccc(C)cc2)C(CC(=O)O)S3)c1 (stereo not drawn)
(R) COc1ccc(OCc2nnc3n2N=C(c2ccc(OC)c(OC)c2)CS3)cc1
(S) Fc1ccccc1OCc1nnc2n1N=C(c1ccc(Cl)cc1)CS2
-- ask rank_up(items): orders items by reported IC50 in ascending numerical order. Please, when replying, give the labels in the order that was requested.
-- reply R, S, P, Q
(R: 1.2 µM, S: 20.4 µM, P: 66.1 µM, Q: 288 µM)

----------
Biological target: human RGS14 RGS-box (wild-type) (Homo sapiens, UniProt O43566)
Construct: human RGS14 RGS-box (aa 46–195 of UniProt O43566); host or cells: E. coli
Sequence (O43566 46-195): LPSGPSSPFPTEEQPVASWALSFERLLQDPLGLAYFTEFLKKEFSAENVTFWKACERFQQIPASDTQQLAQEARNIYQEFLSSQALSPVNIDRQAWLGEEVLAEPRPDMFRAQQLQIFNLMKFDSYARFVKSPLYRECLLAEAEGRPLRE
Assay: Transcreener GDP RGScreen fluorescence polarization assay of RGS14 RGS-box GAP activity on Gαi1(DM)
Type: biochemical
Conditions: wild-type RGS14 RGS-box GAP activity, Gαi1(DM), Transcreener GDP RGScreen; read-out: RGS14 pIC50 (converted)
Some compounds, each annotated with its measured IC50.

> print(dat)
                                   compound  recorded.endpoint  assay.result
1  CCn1c(SC(C)C(=O)c2ccc3c(c2)CCC3)nc2cc(S(=O)(=O)N3CCOCC3)ccc21 (stereo not shown) [Z16669629]               IC50     > 1000 µM
2  CC(Sc1nc2ccccc2n1C)C(=O)c1ccc(NS(C)(=O)=O)cc1 (stereo not shown) [Z50932699]               IC50     > 1000 µM
3  COc1ccc2[nH]c(SCC(=O)c3ccc(O)c(O)c3)nc2c1 [Z223822242]               IC50     > 1000 µM
4  COc1ccc2nc(SC(C)C(=O)c3ccc4c(c3)CCC4)[nH]c2c1 (stereo not shown) [Z16076970]               IC50     > 1000 µM

// assay human RGS14 RGS-box (wild-type) (Homo sapiens, UniProt O43566), entry COc1ccc2nc(SC(C)C(=O)c3ccccc3)[nH]c2c1 (stereo not shown) [Z16077228] , IC50 value = > 1000 µM

// compound CCn1c(SC(C)C(=O)c2c(F)cc(F)cc2F)nc2ccccc21 (stereo not shown) [Z1098345881] , assay human RGS14 RGS-box (wild-type) (Homo sapiens, UniProt O43566), IC50 value: > 1000 µM

For the compound CCC(Sc1nc2ccc(OC)cc2[nH]1)C(=O)c1ccc(Cl)cc1 (stereo not shown) [Z5032180785] , the measured IC50 on human RGS14 RGS-box (wild-type) (Homo sapiens, UniProt O43566) was > 1000 µM

----------
Target: cysteine-less RGS14 RGS-box protein (Homo sapiens, UniProt O43566, C100S/C183S)
Construct: human RGS14 RGS-box (aa 46–195 of UniProt O43566)
Sequence (O43566 46-195 C100S/C183S): as the sequence (O43566 46-195) above, with C55S, C138S counted along it
Assay: Transcreener GDP RGScreen assay with cysteine-less RGS14 RGS-box
Conditions: range given jointly for cysteine-less RGS14 and RGS12 proteins; read-out: estimated IC50, cysteine-less RGS14 RGS-box
recorded.endpoint: IC50

Short answer for "COc1ccc(OCc2nnc3n2N=C(c2ccc(OC)c(OC)c2)CS3)cc1" : IC50 was 10 to 19 µM

# IC50 (compound: COc1ccc2[nH]c(SC(C)C(=O)c3c(F)cc(F)cc3F)nc2c1 (centres unmarked) ) is 26 to 64 µM

----------
Target: cysteine-less RGS12 RGS-box protein (Homo sapiens, UniProt O14924, C701S/C748S/C775S/C831S)
Construct: human RGS12 RGS-box (aa 695–843 of UniProt O14924)
Sequence (O14924 695-843 C701S/C748S/C775S/C831S): as the sequence (O14924 695-843) above, with C7S, C54S, C81S, C137S counted along it
Assay: Transcreener GDP RGScreen assay with cysteine-less RGS12 RGS-box
Details: range given jointly for cysteine-less RGS14 and RGS12 proteins; read-out: estimated IC50, cysteine-less RGS12 RGS-box
pIC50: −log10 of the molar value.
recorded.endpoint: pIC50

> print(dat)
                                   molecule  recorded.endpoint  assay.result
1  COc1ccc(OCc2nnc3n2N=C(c2ccc(OC)c(OC)c2)CS3)cc1              pIC50  4.72 to 5.00

What the record says about COc1ccc2[nH]c(SC(C)C(=O)c3c(F)cc(F)cc3F)nc2c1 (centres unmarked) : pIC50 is 4.19 to 4.59

----------
Target: human RGS14 RGS-box (wild-type) (Homo sapiens, UniProt O43566)
Construct: human RGS14 RGS-box (aa 46–195 of UniProt O43566); host or cells: E. coli
Experiment: Transcreener GDP RGScreen fluorescence polarization assay of RGS14 RGS-box GAP activity on Gαi1(DM)
Type: biochemical
Details: wild-type RGS14 RGS-box GAP activity, Gαi1(DM), Transcreener GDP RGScreen; read-out: RGS14 pIC50 (converted)
# IC50 per record follows

> print(dat)
                                   compound  assay.result
1  CCC(Sc1nc2ccc(OC)cc2[nH]1)C(=O)c1ccccc1 (stereo not drawn) [Z447938100]        > 1 mM
2  C1CC[C@H]2Sc3nnc([C@H]4CCCO4)n3N=C2C1 [Z90278035]     0.0617 mM
3  CCc1ccc(C(=O)C(C)Sc2nc3ccc(OC)cc3[nH]2)cc1 (stereo not drawn) [Z16077530]        > 1 mM

Documented IC50 of COc1ccc(-n2c(SC(C)C(=O)c3cc(C)ccc3C)nc3ccccc32)cc1 (stereo not drawn) [Z19576483] : > 1 mM

Lab note: measured IC50 of CCOc1ccccc1-c1nnc2n1N=C(c1ccc(NC(=O)C(C)C)cc1)[C@@H](C)S2 [Z90278674] was 0.102 mM

// COc1ccc2nc(SC(C)C(=O)c3ccc(OC(F)F)cc3)[nH]c2c1 (stereo not drawn) [Z16077231] : IC50 value = > 1 mM

# IC50 of CCn1c(SC(C)C(=O)c2ccc(NC(C)=O)cc2)nc2cc(S(N)(=O)=O)ccc21 (stereo not drawn) [Z51418527] = > 1 mM

Entry CCn1c(SC(C)C(=O)c2c(F)cc(F)cc2F)nc2cc(S(=O)(=O)N3CCCCC3)ccc21 (stereo not drawn) [Z5032180738] — recorded IC50 = > 1 mM

// IC50 value for COc1ccc2nc(SC(C)C(=O)c3ccc4c(c3)CCN4C(C)=O)[nH]c2c1 (stereo not drawn) [Z165591262] : > 1 mM

Looking up COc1ccc2nc(SC(C)C(=O)c3ccc(NC(=O)C(C)(C)C)cc3)[nH]c2c1 (stereo not drawn) [Z50965385] , I found its IC50 recorded as > 1 mM

Please fill in: IC50 reported for Cc1ccc(C2=Nn3c(COc4ccc(Cl)cc4)nnc3SC2)c(C)c1 [Z55660524] = 0.17 mM

For record COc1ccc2nc(SC(C)C(=O)c3ccc(F)cc3F)[nH]c2c1 (stereo not drawn) [Z167736700] the listed IC50 is > 1 mM

Values were extracted from paper PMC12495443.
